Cited source: ChEMBL document CHEMBL3045194

Test system: Schistosoma mansoni
Procedure text: Antischistosomicidal activity against Schistosoma mansoni egyptian strain assessed as worm mortality at 5 ug/ml after 5 days by stereomicroscopy
Assay type: functional
Particulars: 120 h
Attribute: mortality at 5 µg/mL
Quick note: give the figure in %, leave out the unit.

>  <Compound>
Cn1c2nc3ccccc3c-2c(Nc2ccc(C(F)(F)F)cc2)c2ccccc21

>  <Unit symbol>
%

>  <mortality at 5 µg/mL>
100

$$$$
>  <Compound>
O=C(C1CCCCC1)N1CC(=O)N2CCc3ccccc3C2C1 (centres undefined)

>  <Unit symbol>
%

>  <mortality at 5 µg/mL>
100

$$$$
>  <Compound>
Cn1c2nc3ccccc3c-2c(Nc2ccc(CCO)cc2)c2cc(Br)ccc21

>  <Unit symbol>
%

>  <mortality at 5 µg/mL>
91.7

$$$$
>  <Compound>
CN1CCN(c2c3c4ccccc4nc-3n(C)c3ccc(C(F)(F)F)cc23)CC1

>  <Unit symbol>
%

>  <mortality at 5 µg/mL>
100

$$$$
>  <Compound>
Cn1c2nc3ccccc3c-2c(Cl)c2cc(C(F)(F)F)ccc21

>  <Unit symbol>
%

>  <mortality at 5 µg/mL>
91.7

$$$$

Answer with the recorded mortality at 5 µg/mL for the compound listed here: Cn1c2nc3ccccc3c-2c(Nc2ccccc2)c2ccccc21
100

====

Attribute: mortality at 5 µg/mL
System: Schistosoma mansoni
Procedure text: Antischistosomicidal activity against Schistosoma mansoni egyptian strain assessed as worm mortality at 5 ug/ml after 5 days by stereomicroscopy
Type: functional
Particulars: 120 h
Quick note: give the figure in %, leave out the unit.

Answer with the recorded mortality at 5 µg/mL for the molecule listed here: Clc1ccc2nc3[nH]c4ccccc4c3c(Cl)c2c1
0

Answer with the recorded mortality at 5 µg/mL for the molecule listed here: Cn1c2nc3ccccc3c-2c(NCCCN2CCN(CCCNc3c4c5ccccc5nc-4n(C)c4ccc(C(F)(F)F)cc34)CC2)c2cc(C(F)(F)F)ccc21
8.3

Answer with the recorded mortality at 5 µg/mL for the molecule listed here: Cn1c2nc3ccccc3c-2c(N2CCN(CCO)CC2)c2cc(C(F)(F)F)ccc21
25

Answer with the recorded mortality at 5 µg/mL for the molecule listed here: Cn1c2nc3ccccc3c-2c(NCCCO)c2cc(Br)ccc21
66.7

Answer with the recorded mortality at 5 µg/mL for the molecule listed here: Cn1c2nc3ccccc3c-2c(Cl)c2ccccc21 [11-CHLORONEOCRYPTOLEPINE]
75

====

Tested on: Schistosoma mansoni
Procedure text: Antischistosomicidal activity against Schistosoma mansoni egyptian strain assessed as worm mortality at 5 ug/ml after 5 days by stereomicroscopy
Assay type: functional
Particulars: 120 h
Tick met if mortality at 5 µg/mL is 70% or greater. Tick not met if mortality at 5 µg/mL is less than 70%.

>  <Molecule>
CCN(CC)CCCC(C)Nc1c2c3ccccc3nc-2n(C)c2ccc(Cl)cc12 (stereo not drawn)

>  <Qualitative label>
met

$$$$
>  <Molecule>
Cn1c2nc3ccccc3c-2cc2ccccc21 [NEOCRYPTOLEPINE]

>  <Qualitative label>
not met

$$$$
>  <Molecule>
CN1CCN(c2c3c4ccccc4nc-3n(C)c3ccccc23)CC1

>  <Qualitative label>
not met

$$$$
>  <Molecule>
Cn1c2nc3ccccc3c-2c(Nc2ccc(CCO)cc2)c2ccccc21

>  <Qualitative label>
not met

$$$$
>  <Molecule>
Cn1c2nc3ccccc3c-2c(N2CCOCC2)c2ccccc21

>  <Qualitative label>
not met

$$$$

// inclusive: mortality at 5 µg/mL at least 70%? input: Cn1c2nc3ccccc3c-2c(NCCCN2CCN(CCCNc3c4c5ccccc5nc-4n(C)c4ccc(Cl)cc34)CC2)c2cc(Cl)ccc21
met

// inclusive: mortality at 5 µg/mL at least 70%? input: Cn1c2nc3ccccc3c-2c(NCCc2c[nH]c3ccccc23)c2ccccc21
met

// inclusive: mortality at 5 µg/mL at least 70%? input: Cn1c2nc3ccccc3c-2c(Cl)c2cc(Br)ccc21
not met
